System: KRAS-mutant PDC complex spheroid viability;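 also: viability read after seven days of compound exposure; 100% = DMSO vehicle-treated spheroids so lower means less viable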
ASSAY EXPLANATION: Anticancer human tumor 186277-243-T-J2-PDC patient-derived colon adenocarcinoma cell line growth inhibition [KRAS2]
ASSAY SETUP: second compound 1 µM; first compound 10 µM; active compounds read low
Documented viability, T/C across a set of compounds
MEASURED PROPERTY: viability, T/C (%)

COMPOUND	MEASURED PROPERTY	QUANTITATIVE READOUT
COc1cc(Nc2ncc3c(n2)-c2ccc(Cl)cc2C(c2c(F)cccc2OC)=NC3)ccc1C(=O)O + CNCc1ccccc1-c1csc(C(C)Nc2nc(C)nc3cc(OC)c(OC)cc23)c1	viability, T/C	35.9
CC(C)NCC(C(=O)N1CCN(c2ncnc3c2C(C)CC3O)CC1)c1ccc(Cl)cc1 (stereo not given) + C=CC(=O)N1CCN(c2nc(=O)n(-c3c(C)ccnc3C(C)C)c3nc(-c4c(O)cccc4F)c(F)cc23)C(C)C1	viability, T/C	10.6
CC1(C)CCC(CN2CCN(c3ccc(C(=O)NS(=O)(=O)c4ccc(NCC5CCOCC5)c([N+](=O)[O-])c4)c(Oc4cnc5[nH]ccc5c4)c3)CC2)=C(c2ccc(Cl)cc2)C1 + C=CC(=O)N1CCN(c2nc(=O)n(-c3c(C)ccnc3C(C)C)c3nc(-c4c(O)cccc4F)c(F)cc23)C(C)C1	viability, T/C	0.49
CC(C)NCC(C(=O)N1CCN(c2ncnc3c2C(C)CC3O)CC1)c1ccc(Cl)cc1 (stereo not given) + CNCc1ccccc1-c1csc(C(C)Nc2nc(C)nc3cc(OC)c(OC)cc23)c1	viability, T/C	8.81
CCNC(=O)CC1N=C(c2ccc(Cl)cc2)c2cc(OC)ccc2-n2c(C)nnc21 (stereo not given) + COc1cc2nc(C)nc(NC(C)c3cc(N)cc(C(F)(F)F)c3)c2cc1OC1CCOC1	viability, T/C	6.44
